Data origin: ChEMBL document CHEMBL1759901

# Study System: UniProtKB P10635
# Sequence (P10635 whole entry): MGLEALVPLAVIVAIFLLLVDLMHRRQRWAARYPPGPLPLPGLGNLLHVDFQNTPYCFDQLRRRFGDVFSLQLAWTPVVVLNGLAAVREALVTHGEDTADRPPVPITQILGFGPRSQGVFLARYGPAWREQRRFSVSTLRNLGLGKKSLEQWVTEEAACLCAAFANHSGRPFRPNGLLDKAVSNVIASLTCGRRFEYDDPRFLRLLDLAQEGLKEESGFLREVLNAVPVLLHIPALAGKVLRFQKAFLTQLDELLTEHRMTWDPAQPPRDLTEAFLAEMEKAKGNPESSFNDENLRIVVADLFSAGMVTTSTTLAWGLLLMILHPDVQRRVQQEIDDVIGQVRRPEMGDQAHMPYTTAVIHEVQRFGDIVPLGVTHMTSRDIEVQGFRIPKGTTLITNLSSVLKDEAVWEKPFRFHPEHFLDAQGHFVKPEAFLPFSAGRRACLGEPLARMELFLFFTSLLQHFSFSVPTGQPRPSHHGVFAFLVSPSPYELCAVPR
# Experiment Description: Inhibition of CYP2D6
# Assay type: ADME
# Experimental Parameters: read-out: IC50
pIC50: −log10 of the molar value.
Threshold rule: pIC50 greater than or equal to 6 is satisfied; below that, not satisfied.

Could you verify whether the entry N#Cc1cc(F)c(Cl)cc1O[C@H](CCN)c1ccccc1.O=C(O)C(=O)O shows pIC50 of no less than 6? satisfied

Same read-out for N#Cc1ccc(Cl)cc1O[C@H](CCN)c1ccccc1.O=C(O)C(=O)O ? satisfied

Quick one: CNCC[C@@H](Oc1cc(C(F)(F)F)ccc1C#N)c1ccccc1.Cl not satisfied

Record: CCC(CCNC)Oc1cc(Cl)ccc1C#N.Cl (racemic) satisfied

// next record Cc1ccc(C#N)c(S[C@H](CCN)c2ccccc2)n1.O=C(O)/C=C/C(=O)O not satisfied

Also check CNCC[C@@H](Oc1cc(OC)ccc1C#N)c1ccccc1.O=C(O)C(=O)O satisfied

What about N#Cc1ccc(Cl)cc1S[C@H](CCN)c1ccccc1.O=C(O)/C=C/C(=O)O ? not satisfied

Query N#Cc1ccc(C(F)(F)F)nc1O[C@H](CCN)c1ccno1.O=C(O)C(=O)O next not satisfied
